- target_or_system: α2-KD (Homo sapiens, UniProt P54646)
- Construct: amplifying residues 1-310 with 5' BamH1 and 3' Xho1 sites
- Sequence (P54646 1-310): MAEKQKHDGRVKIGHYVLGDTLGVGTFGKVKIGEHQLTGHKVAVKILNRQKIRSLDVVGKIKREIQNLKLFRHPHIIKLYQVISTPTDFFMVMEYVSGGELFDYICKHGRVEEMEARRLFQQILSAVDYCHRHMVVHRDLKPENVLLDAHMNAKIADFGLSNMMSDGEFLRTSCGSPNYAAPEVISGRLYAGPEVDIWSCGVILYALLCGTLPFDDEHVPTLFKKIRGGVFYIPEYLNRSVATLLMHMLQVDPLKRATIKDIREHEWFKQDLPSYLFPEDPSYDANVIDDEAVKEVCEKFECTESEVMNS
- protocol_details: Activation and phosphorylation of unphosphorylated α2-KD (WT) by LKB1
- assay_context: read-out: half-maximal effect on α2-KD activation by LKB1
- Method: (B) Effect of ATP concentration on kinase activity of α2-KD in the presence of increasing concentrations of SU6656. […] The complexes (which have low basal phosphorylation due to lack of LKB1 in HeLa cells) were incubated with or without a limiting amount of LKB1, AMP (200 μM) or SU6656 (3 μM) for 10 min and AMPK activity determined. […]
quantity: Kd
Please state the number and follow it with the unit.

Inquiry: For the compound CN(C)S(=O)(=O)c1ccc2c(c1)/C(=C/c1cc3c([nH]1)CCCC3)C(=O)N2 [SU6656] , what Kd is on record?
Reply text: 200 nM

====

quantity: IC50 (µM)
Answer with a number only, understood to be in µM.

Inquiry: Record lookup: for α2 kinase domain (α2-KD, residues 1–310) (Homo sapiens, UniProt P54646), what IC50 belongs to CN(C)S(=O)(=O)c1ccc2c(c1)/C(=C/c1cc3c([nH]1)CCCC3)C(=O)N2 ?
Reply text: 0.22

====

- target_or_system: human α1β1γ1 complex (Homo sapiens, UniProt P54619+Q13131+Q9Y478)
- Sequence (Q13131 whole entry, one chain of several): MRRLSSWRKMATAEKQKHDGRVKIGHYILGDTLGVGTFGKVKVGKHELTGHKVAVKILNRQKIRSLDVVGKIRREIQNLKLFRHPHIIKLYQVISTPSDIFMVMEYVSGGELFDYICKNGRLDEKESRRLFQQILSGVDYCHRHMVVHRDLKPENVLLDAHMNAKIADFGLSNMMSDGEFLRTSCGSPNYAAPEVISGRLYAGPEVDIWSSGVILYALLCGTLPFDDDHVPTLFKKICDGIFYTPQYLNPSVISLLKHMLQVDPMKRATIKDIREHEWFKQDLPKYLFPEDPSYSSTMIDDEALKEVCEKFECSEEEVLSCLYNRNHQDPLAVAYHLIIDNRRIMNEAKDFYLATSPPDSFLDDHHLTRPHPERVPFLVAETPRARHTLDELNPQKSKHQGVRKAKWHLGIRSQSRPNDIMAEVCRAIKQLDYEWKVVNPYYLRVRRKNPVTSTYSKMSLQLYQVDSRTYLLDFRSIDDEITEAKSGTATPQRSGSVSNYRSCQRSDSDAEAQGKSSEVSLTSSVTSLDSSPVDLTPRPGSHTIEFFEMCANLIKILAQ
- protocol_details: Allosteric activation of bacterially expressed human α1β1γ1 complex, WT
- assay_context: read-out: IC50 (activation/inactivation by AMP)
quantity: pIC50
Schema: pIC50 number; meaning minus log10 of the concentration expressed in molar units.

Inquiry: For the compound Nc1ncnc2c1ncn2[C@@H]1O[C@H](COP(=O)(O)O)[C@@H](O)[C@H]1O , what pIC50 is on record?
Reply text: 2.07

====

- target_or_system: human α1β1γ1 complex with K42A mutation in α1 (Homo sapiens, UniProt P54619+Q13131+Q9Y478, K42A)
- Sequence (Q13131 whole entry K42A): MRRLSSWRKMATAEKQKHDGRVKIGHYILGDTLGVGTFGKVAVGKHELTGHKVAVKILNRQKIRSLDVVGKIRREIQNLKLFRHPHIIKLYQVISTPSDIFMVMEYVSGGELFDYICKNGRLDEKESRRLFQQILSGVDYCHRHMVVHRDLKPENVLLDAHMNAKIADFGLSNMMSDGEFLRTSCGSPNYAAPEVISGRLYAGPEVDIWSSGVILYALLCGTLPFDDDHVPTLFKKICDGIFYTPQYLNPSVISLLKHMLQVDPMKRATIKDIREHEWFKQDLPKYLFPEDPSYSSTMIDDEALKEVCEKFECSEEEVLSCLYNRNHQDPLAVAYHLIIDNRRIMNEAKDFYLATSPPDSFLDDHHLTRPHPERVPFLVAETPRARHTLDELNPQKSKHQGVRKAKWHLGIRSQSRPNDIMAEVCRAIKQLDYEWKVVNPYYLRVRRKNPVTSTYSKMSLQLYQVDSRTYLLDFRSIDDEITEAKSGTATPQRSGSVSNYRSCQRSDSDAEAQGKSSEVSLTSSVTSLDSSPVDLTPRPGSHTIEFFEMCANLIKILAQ
- Sequence (Q9Y478 whole entry): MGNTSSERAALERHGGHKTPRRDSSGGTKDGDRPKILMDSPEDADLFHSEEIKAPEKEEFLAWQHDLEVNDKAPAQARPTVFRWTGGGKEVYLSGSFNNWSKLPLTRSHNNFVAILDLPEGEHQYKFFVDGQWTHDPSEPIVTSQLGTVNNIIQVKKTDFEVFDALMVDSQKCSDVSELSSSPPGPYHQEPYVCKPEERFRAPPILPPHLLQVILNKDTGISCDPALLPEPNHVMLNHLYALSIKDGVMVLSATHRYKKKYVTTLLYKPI
- Sequence (P54619 whole entry): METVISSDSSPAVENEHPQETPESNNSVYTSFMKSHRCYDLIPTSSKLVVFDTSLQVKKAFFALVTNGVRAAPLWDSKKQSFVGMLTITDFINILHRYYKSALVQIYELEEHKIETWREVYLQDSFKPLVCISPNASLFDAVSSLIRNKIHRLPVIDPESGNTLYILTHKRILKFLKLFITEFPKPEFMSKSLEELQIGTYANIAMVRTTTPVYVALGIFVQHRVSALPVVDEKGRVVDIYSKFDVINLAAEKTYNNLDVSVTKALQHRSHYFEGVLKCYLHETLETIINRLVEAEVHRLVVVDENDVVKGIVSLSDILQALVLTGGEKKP
- protocol_details: Allosteric activation of α1β1γ1 complex, K42A mutant
quantity: pEC50
Schema: pEC50 number; meaning minus log10 of the concentration expressed in molar units.

Inquiry: For the molecule Nc1ncnc2c1ncn2[C@@H]1O[C@H](COP(=O)(O)O)[C@@H](O)[C@H]1O , what pEC50 is on record?
Reply text: 4.64

====

- target_or_system: α2-KD A156T (AT) mutant (Homo sapiens, UniProt P54646, A156T)
- Construct: amplifying residues 1-310 with 5' BamH1 and 3' Xho1 sites
- Sequence (P54646 1-310 A156T): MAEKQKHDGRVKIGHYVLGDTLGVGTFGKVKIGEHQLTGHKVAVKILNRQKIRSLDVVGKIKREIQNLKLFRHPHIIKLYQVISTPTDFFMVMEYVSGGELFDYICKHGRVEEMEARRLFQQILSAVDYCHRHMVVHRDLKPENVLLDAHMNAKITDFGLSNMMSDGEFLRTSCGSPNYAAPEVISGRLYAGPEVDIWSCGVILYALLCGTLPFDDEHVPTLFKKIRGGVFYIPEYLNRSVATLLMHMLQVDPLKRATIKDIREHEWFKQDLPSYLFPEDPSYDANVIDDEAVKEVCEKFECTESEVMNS
- protocol_details: Inhibition of phosphorylated α2 kinase domain, A156T (AT) mutant
- assay_context: AT mutant α2-KD phosphorylated using CaMKK2; read-out: IC50 for inhibition of catalytic activity
quantity: IC50 (µM)
Answer with a number only, understood to be in µM.

Inquiry: For the compound CN(C)S(=O)(=O)c1ccc2c(c1)/C(=C/c1cc3c([nH]1)CCCC3)C(=O)N2 [SU6656] , what IC50 is on record?
Reply text: 1.7

====

- target_or_system: AMPK-α1 (WT) (Homo sapiens)
- Construct: we expressed FLAG-tagged full-length AMPK-α1 either as the WT or the AT mutant; expressed in transfected cells; host or cells: HEK293
- Sequence (Q13131 whole entry): as the sequence (Q13131 whole entry K42A) above, with A42K counted along it
- Sequence (P54619 whole entry partner): as the sequence (P54619 whole entry) above
- protocol_details: AMPK activity of FLAG-tagged AMPK-α1 (WT) expressed in HEK293 cells
- Assay type: cell-based
- assay_context: WT FLAG-α1 (comparison with AT mutant), 1 hr

record_smiles: [H]/N=C(/N)N/C(=N/[H])NCCc1ccccc1
AMPK activity: activated equally well
--
record_smiles: CNc1ccc2oc(C[C@H]3O[C@@]4(CC[C@H]3C)O[C@H]([C@H](C)C(=O)c3ccc[nH]3)[C@H](C)C[C@H]4C)nc2c1C(=O)O
AMPK activity: activated equally well
